System: A375 (BRAF V600E)
assay_text: Cell viability assay (CellTiter Glo)
Type: cell-based
condition_description: A375, 1000 cells seeded per well, 72 hours; read-out: BRAF Cytotoxicity (IC50, nM) A375 (1000 cells)
Measured IC50, listed per entry.

>  <compound>
CCCC(O)c1cc(C)c(-c2cc3cnc(NC(=O)[C@H]4C[C@H]4F)cc3n(C)c2=O)cn1 (single isomer, unassigned) [Example S43, Isomer A]

>  <IC50>
52.1 nM

$$$$
>  <compound>
CCCC(O)c1cc(C)c(-c2cc3cnc(NC(=O)C4CC4)cc3n(C)c2=O)cn1 (single isomer, unassigned) [Example S42, Enantiomer B]

>  <IC50>
141 nM

$$$$
>  <compound>
CCC(O)c1cc(C)c(-c2cc3cnc(NC(=O)[C@@H]4C[C@@H]4F)cc3n(C)c2=O)cn1 (single isomer, unassigned; isomer a) [Example S40, Isomer A]

>  <IC50>
492 nM

$$$$

----------
System: phosphorylated ERK (pERK)
assay_text: Detection of phosphorylated ERK (pERK), AlphaLISA in A375 cells
Format: cell-based
condition_description: four hours incubation, inhibition of ERK phosphorylation, read-out: PERK ELISA (IC50)
pIC50: −log10 of the molar value.
Classification field: enter True for pIC50 values not below 7, False for values below it.

>  <compound>
CCCC(O)c1cc(C)c(-c2cc3cnc(NC(=O)C4CC4)cc3n(C)c2=O)cn1 (single isomer, unassigned) [Example S42, Enantiomer B]

>  <group_label>
True

$$$$
>  <compound>
CCC(O)c1cc(C)c(-c2cc3cnc(NC(=O)C4CC4)cc3n(C)c2=O)c(C)c1 (stereo in doubt) [Compound 118]

>  <group_label>
False

$$$$
>  <compound>
CCCC(O)c1cc(C)c(-c2cc3cnc(NC(C)=O)cc3n(C)c2=O)cn1 (single isomer, unassigned) [Example S67, Enantiomer A]

>  <group_label>
True

$$$$
>  <compound>
CCC(O)c1cc(C)c(-c2cc3cnc(NC(=O)C4CC4)cc3n(C)c2=O)c(C)c1 (stereo in doubt) [Compound 120]

>  <group_label>
False

$$$$
>  <compound>
CCC(O)c1cc(C)c(-c2cc3cnc(NC(=O)C4CC4)cc3n(C)c2=O)c(C)c1 (stereo in doubt) [Compound 119]

>  <group_label>
False

$$$$
>  <compound>
CCCC(O)c1cc(C)c(-c2cc3cnc(NC(C)=O)cc3n(C)c2=O)cn1 (single isomer, unassigned) [Example S67, Enantiomer B]

>  <group_label>
True

$$$$
>  <compound>
COCC(O)c1cc(C)c(-c2cc3cnc(NC(=O)C4CC4)cc3n(C)c2=O)cn1 (single isomer, unassigned) [Example S60, Enantiomer B]

>  <group_label>
True

$$$$
>  <compound>
CCC(O)c1cc(C)c(-c2cc3cnc(NC(=O)[C@@H]4C[C@@H]4F)cc3n(C)c2=O)cn1 (single isomer, unassigned; isomer a) [Example S40, Isomer A]

>  <group_label>
True

$$$$
>  <compound>
CCC(O)c1cc(C)c(-c2cc3cnc(NC(C)=O)cc3n(C)c2=O)cn1 (single isomer, unassigned) [Example S59, Enantiomer B]

>  <group_label>
False

$$$$
>  <compound>
CCC(O)c1cc(C)c(-c2cc3cnc(NC(=O)[C@H]4CC4(F)F)cc3n(C)c2=O)cn1 (single isomer, unassigned) [Example S49, Isomer B]

>  <group_label>
True

$$$$
>  <compound>
CCCC(O)c1cc(C)c(-c2cc3cnc(NC(=O)[C@H]4C[C@H]4F)cc3n(C)c2=O)cn1 (single isomer, unassigned) [Example S43, Isomer B]

>  <group_label>
True

$$$$
>  <compound>
CCC(O)c1cc(C)c(-c2cc3cnc(NC(=O)[C@@H]4C[C@@H]4F)cc3n(C)c2=O)cn1 (single isomer, unassigned; isomer b) [Example S40, Isomer B]

>  <group_label>
False

$$$$
>  <compound>
CCCC(O)c1cc(C)c(-c2cc3cnc(NC(=O)C4CC4)cc3n(C)c2=O)cn1 (single isomer, unassigned) [Example S42, Enantiomer A]

>  <group_label>
True

$$$$
